- System name: DENV protease (Dengue virus type 2, UniProt P29990)
- Construct: The virus-encoded dengue protease comprises the amino-terminal 180 amino acids of NS3 (NS3pro) of the polyprotein
- Sequence (P29990 1398-1437): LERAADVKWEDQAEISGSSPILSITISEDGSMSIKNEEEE
- Sequence (P29990 1476-1653): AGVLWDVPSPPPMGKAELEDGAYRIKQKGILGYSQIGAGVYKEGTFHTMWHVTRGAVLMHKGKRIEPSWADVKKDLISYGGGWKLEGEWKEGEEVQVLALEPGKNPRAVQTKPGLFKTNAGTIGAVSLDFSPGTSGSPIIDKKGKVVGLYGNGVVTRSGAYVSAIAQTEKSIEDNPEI
- Assay overview: biochemical
- Study conditions: at 50 μM; read-out: inhibition of DENV
Where a SMILES comes first, the peptide text is derived from it. [ ]: non-standard residue; d: D form. The star is where a group is joined. Palmitoyl = CCCCCCCCCCCCCCCC(=O)*; hPhe = N[C@@H](CCc1ccccc1)C(=O)O
Hi there, I'd appreciate the recorded inhibition at 50 µM for every entry that follows.

Request: Notebook: pull reported inhibition at 50 µM for DENV protease (Dengue virus type 2, UniProt P29990), entry CCCCCCCCCCCCCCCC(=O)N[C@@H](CCCCN)C(=O)N1CCC[C@H]1C(=O)N[C@@H](C)C(=O)N[C@@H](CCCCN)C(N)=O [compound 156] (Palmitoyl-KPAK-NH2)
Response: ≥ 25%

Request: Quick check: inhibition at 50 µM on DENV protease (Dengue virus type 2, UniProt P29990), item CCCCCCCCCCCCCCCC(=O)N[C@@H](CCCCN)CCN1CCC[C@H]1CC(=O)N[C@@H](C)C(=O)N[C@@H](Cc1c[nH]c2ccccc12)C(N)=O [compound 120] ?
Response: ≥ 25%

Request: # query: inhibition at 50 µM | item CCCCCCCCCCCCCCCC(=O)N[C@@H](CCCNC(=N)N)C(=O)N[C@@H](C)C(=O)N[C@@H](CCc1ccccc1)C(N)=O [compound 51] (Palmitoyl-Arg-Ala-[hPhe]-NH2) | system: DENV protease (Dengue virus type 2, UniProt P29990)
Response: ≥ 25%
